Assay: Identification of proteins required for the processing of the EWS-FLI1 nascent transcript;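 note: robust z of luciferase light less the median z of siRNAs with the same seed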
Conditions: TC32 Ewing sarcoma NR0B1-luc vs CMV-luc, 48 h; screened at 20 nM (by protocol)
Whole data set: some 59,000 sequences, median the read-out near -0.00055, cut for the lowest 2% near -2. Shown is part of a subset that was picked to be rich in the lowest values.
Assign Criterion met whenever seed-corrected z-score does not fall below 0.3; assign Criterion not met whenever it does.

> print(dat)
                     construct.sequence   class.assignment
1      UCAAGUACAUUGCAGUUUG against PDK1  Criterion not met
2  UUGUAUUCCACAGAAGUAA against SLC25A41  Criterion not met
3     AUCGUGCAAGGUGUUCUCC against BFSP2      Criterion met
4    UAUGGAGCAGGUAAUAGAG against ZNF311      Criterion met
5      UCUGCAACAAGAUCAACAG against POP5      Criterion met
6    UGAACAUAAAUUCCAGCUC against CLEC2L      Criterion met

====

Assay: Identification of proteins required for the processing of the EWS-FLI1 nascent transcript;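 note: robust z of luciferase light less the median z of siRNAs with the same seed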
Conditions: TC32 Ewing sarcoma NR0B1-luc vs CMV-luc, 48 h; screened at 20 nM (by protocol)
The full ranking holds about 59,000 sequences; the median of the read-out is about -0.00055, and the lowest 2% start at about -2. This excerpt belongs to a sample that is enriched for the lowest values.
experimental.endpoint: seed-corrected z-score

> print(dat)
                     construct.sequence  endpoint.value
1  UUGCUUUCGAGACCAGCUC against C11orf16           -2.33
2      GUUGGUAACAGGGUCAUUU against RXRG           -0.41
3   AGACUGUAAAAGAUCUGUG against CCDC106          -0.709
4    UUGGUAGUAGAUCAUAUGC against STXBP3         -0.0771
5     UAUCUUAUUUCAUCGUUUC against PTGS1          -0.545
6  UUGCUUUCCACAACGAGAU against CHL1-AS2           -0.29

====

Experiment: Identification of proteins required for the processing of the EWS-FLI1 nascent transcript;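 note: robust z of luciferase light less the median z of siRNAs with the same seed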
Details: TC32 Ewing sarcoma NR0B1-luc vs CMV-luc (EWS-FLI1 target promoter against control promoter), 48 h; screened at 20 nM (by protocol)
In all, about 59,000 sequences were measured (the read-out: median about -0.00055, lowest 2% from about -2 on). This is one part of a sample in which the lowest values are shown more often than they occur.
Outcome label depends on seed-corrected z-score relative to -0.3: at/above gives Fulfilled, below gives Not fulfilled.

> print(dat)
                       construct.sequence  class.assignment
 1      UCUGCGACUCCUGUUCUGC against WRBP1         Fulfilled
 2     UACAGUUCCUCAAUGUUCA against IL1F10         Fulfilled
 3        UUCGUAGUGGAGUGAAUCC against DHH         Fulfilled
 4  UAUUCUUAUCUGUAAUCCC against LOC646736         Fulfilled
 5    UGAUGAAGUAGGUCACGGC against SLC29A4         Fulfilled
 6      UUAAUCGGCACAGCUGUUC against RSBN1     Not fulfilled
 7      AAUUCGAUUAGAGAGUGUC against SENP5         Fulfilled
 8    UAGGGAUUCCCUGUAGUUC against COLEC10         Fulfilled
 9       UGAGAGUUCAUAGCGUAUC against RCE1     Not fulfilled
10        UUUUGUCCCGGAACAUGCG against BCR         Fulfilled
11      AAAACGACUCUUCAUACUG against CLRN2     Not fulfilled
12      UUCCGAAUGGAAACUCUGG against BCL7C         Fulfilled
13      UCCGUUUCCACAUGGUCGC against TEKT4         Fulfilled
14     AGUAGAUACAGCUUCUUUC against CCDC50     Not fulfilled
15   UUCUUUAUCCUUAGUCCUC against NFATC2IP     Not fulfilled
16       UGUCUUCGAUGUUUCAUCG against DOK6     Not fulfilled
17   UAAGUUCUUGUAUCUUCCC against ATP6V1G3         Fulfilled
18      AUACGAUAAAUAGCAGCUG against OR2D2         Fulfilled
19    UUGAGGGCAGAAGUACACU against FAM231D     Not fulfilled
20        AUCGGUAGCAGUGAACAUG against LPP     Not fulfilled
21     UCAGCUGAUUCAUUAGAGG against TRIM44     Not fulfilled
22       UCAGUAUGAAGAGCAACAG against MCM2     Not fulfilled
23   AUUGUGACUAUUAUGAGUC against MTND5P10     Not fulfilled
24     AAUGUUCCUAUUUAUUUCG against RNF214     Not fulfilled
25    UUACUGACGACAUCAUUCC against PRPF40A         Fulfilled
26  AAACAGACCACCUCGUAGG against MTUS2-AS1         Fulfilled
